Molecular target: T1, human CD8 alpha (CD8A) on primary human CD8+ T cells (human, UniProt P01732 22-235)
T1 construct: whole, on cells; also called hCD8A
T1 sequence (P01732 22-235): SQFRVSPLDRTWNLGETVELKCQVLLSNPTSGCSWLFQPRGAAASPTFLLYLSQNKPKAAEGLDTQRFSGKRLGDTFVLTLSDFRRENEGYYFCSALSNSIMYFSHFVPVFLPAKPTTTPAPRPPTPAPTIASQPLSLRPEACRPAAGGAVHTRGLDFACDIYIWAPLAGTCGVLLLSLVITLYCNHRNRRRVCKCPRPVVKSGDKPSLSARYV
Experiment: flow cytometry, human CD8+ T cells, 2 uM FN3
Exercise: state measured Human T-cell Binding 2 uM (MFI) for each of the binders provided.
Give bare numbers, in MFI.

Examples with their reported Human T-cell Binding 2 uM (MFI) follow.
| binder | Human T-cell Binding 2 uM (MFI) |
| --- | --- |
| P282DR9P1359_C11 (designed binder, FN3 domain) LPAPKNLVVSRVTEDSARLSWTAPDAAFDSFKIAYPEFPPPGEAIVLTVPGSERSYDLTGLKPGTEYYVIIIGVKGGTDSWPLSAIFTT | 18200 |
| P282CR9P1358_F11 (designed binder, FN3 domain) LPAPKNLVVSRVTEDSARLSWTAPDAAFDSFLIAYPEWPIFEGEAIVLTVPGSERSYDLTGLKPGTEYFVVIYGVKGGEQSSPLSAIFTT | 6420 |
| P282DR9P1359_E2 (designed binder, FN3 domain) LPAPKNLVVSRVTEDSARLSWTAPDAAFDSFNIFYPEIVTWGEAIVLTVPGSERSYDLTGLKPGTEYWVNIVGVKGGDNSWPLSAIFTT | 28500 |
| P282DR9P1359_E5 (designed binder, FN3 domain) LPAPKNLVVSRVTEDSARLSWTAPDAAFDSFAISYPEWPVPGEAIVLTVPGSERSYDLTGLKPGTEYFVIIYGVKGGLYSAPLSAIFTT | 24100 |

In the following, a different binder is considered.
-- ask Give a short answer stating reported Human T-cell Binding 2 uM (MFI) for P282DR9P1359_F7 (designed binder, FN3 domain) LPAPKNLVVSRVTEDSARLSWTAPDAAFDSFAIAYPEWPPQGEAIVLTVPGSERSYDLTGLKPGTEYFVVIYGVKGGSYSAPLSAIFTT .
-- reply 38300
